// IC50 lookup, one value per entry
Target: hNGAL (human lipocalin 2, parent wild type SEQ ID NO: 1) mutein SEQ ID NO: 45 (Homo sapiens, UniProt P80188, A60L/C107S/D97K/I61A/K154W/K93H/L123Q/L56E/L90R/N116L/Q48H/Q69M/R101V/S147V/S88E/W99D/Y120D/Y126E/Y72M)
Sequence (P80188 other isoform, or with tags, fused parts or gaps with the stated changes): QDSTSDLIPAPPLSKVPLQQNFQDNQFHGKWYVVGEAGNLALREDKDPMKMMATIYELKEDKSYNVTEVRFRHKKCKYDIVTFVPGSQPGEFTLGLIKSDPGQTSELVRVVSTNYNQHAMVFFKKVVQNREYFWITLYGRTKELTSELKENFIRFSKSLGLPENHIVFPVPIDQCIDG
Assay: Solution binding ELISA
reported-property: IC50 (nM)

compound	reported-property	unit-string	endpoint-result
NC(=O)CCC(=O)Nc1cc2cc([O-])c([O-])cc2[n+]2c1NCC[C@H]2C(=O)N[C@H](CO)C1=NCC[C@@H](C(=O)N[C@@H](CCCN([O-])C=O)C(=O)N[C@@H](CCC(N)=O)C(=O)N[C@H](CCC(N)=O)C(=O)N[C@H](CCCN([O-])C=O)C(=O)NCC(=O)O)N1.[Fe+3] [Pvd III sa (+Fe), Pvd type III succinamide]	IC50	nM	0.43
NC(=O)CCC(=O)Nc1cc2cc(O)c(O)cc2[n+]2c1NCC[C@H]2C(=O)N[C@H](CO)C1=NCC[C@@H](C(=O)N[C@@H](CCCN(O)C=O)C(=O)N[C@@H](CCC(N)=O)C(=O)N[C@H](CCC(N)=O)C(=O)N[C@H](CCCN(O)C=O)C(=O)NCC(=O)O)N1 [Pvd III sa (−Fe), Pvd type III succinamide]	IC50	nM	0.46
NC(=O)CC[C@H](NC(=O)[C@H](CCCN(O)C=O)NC(=O)[C@@H]1CCN=C([C@@H](CO)NC(=O)[C@@H]2CCNc3c(NC(=O)C(=O)CCC(=O)O)cc4cc(O)c(O)cc4[n+]32)N1)C(=O)N[C@H](CCC(N)=O)C(=O)N[C@H](CCCN(O)C=O)C(=O)NCC(=O)O [Pvd III aKG (−Fe), Pvd type III α-ketoglutaryl]	IC50	nM	1.7
NC(=O)CC[C@H](NC(=O)[C@H](CCCN([O-])C=O)NC(=O)[C@@H]1CCN=C([C@@H](CO)NC(=O)[C@@H]2CCNc3c(NC(=O)C(=O)CCC(=O)O)cc4cc([O-])c([O-])cc4[n+]32)N1)C(=O)N[C@H](CCC(N)=O)C(=O)N[C@H](CCCN([O-])C=O)C(=O)NCC(=O)O.[Fe+3] [Pvd III aKG (+Fe), Pvd type III α-ketoglutaryl]	IC50	nM	1.5

Ref: patent US10947284B2
